Below, each entry is listed with its recorded EC50 at 48 h.
Experiment: Cytotoxicity against human THLE3 cells assessed as reduction in cell viability after 48 hrs by alamar blue assay
Type: toxicity, cell-based
Number in µM, nothing else.

Please review the entries below; each comes with its answer.
{"cpdSmiles": "O=S(=O)(Nc1ccc(-c2nc3cc(NS(=O)(=O)c4cccc(O)c4)ccc3o2)cc1)c1cccc(O)c1", "valueReported": 37}
{"cpdSmiles": "COc1cccc(S(=O)(=O)Nc2ccc(-c3nc4cc(NS(=O)(=O)c5cccc(OC)c5)ccc4o3)cc2)c1", "valueReported": 15}
{"cpdSmiles": "Nc1ccccc1S(=O)(=O)Nc1ccc(-c2nc3cc(NS(=O)(=O)c4ccccc4N)ccc3o2)cc1", "valueReported": 18}

Recorded EC50 at 48 h of `O=S(=O)(Nc1ccc(-c2nc3cc(NS(=O)(=O)c4ccc5nsnc5c4)ccc3o2)cc1)c1ccc2nsnc2c1` , please.
45

// same read-out, input: `O=S(=O)(Cc1ccccc1)Nc1ccc(-c2nc3cc(NS(=O)(=O)Cc4ccccc4)ccc3o2)cc1`
29

// same read-out, input: `COC(=O)c1cccc(S(=O)(=O)Nc2ccc(-c3nc4cc(NS(=O)(=O)c5cccc(C(=O)OC)c5)ccc4o3)cc2)c1`
49

// same read-out, input: `O=S(=O)(Nc1ccc(-c2nc3cc(NS(=O)(=O)c4ccccc4)ccc3o2)cc1)c1ccccc1`
19
